Measured values drawn from patent US20080234498A1 for this set.

Target: serotonin transporter (SERT) (Homo sapiens)
Sequence (P31645 whole entry, species assumed): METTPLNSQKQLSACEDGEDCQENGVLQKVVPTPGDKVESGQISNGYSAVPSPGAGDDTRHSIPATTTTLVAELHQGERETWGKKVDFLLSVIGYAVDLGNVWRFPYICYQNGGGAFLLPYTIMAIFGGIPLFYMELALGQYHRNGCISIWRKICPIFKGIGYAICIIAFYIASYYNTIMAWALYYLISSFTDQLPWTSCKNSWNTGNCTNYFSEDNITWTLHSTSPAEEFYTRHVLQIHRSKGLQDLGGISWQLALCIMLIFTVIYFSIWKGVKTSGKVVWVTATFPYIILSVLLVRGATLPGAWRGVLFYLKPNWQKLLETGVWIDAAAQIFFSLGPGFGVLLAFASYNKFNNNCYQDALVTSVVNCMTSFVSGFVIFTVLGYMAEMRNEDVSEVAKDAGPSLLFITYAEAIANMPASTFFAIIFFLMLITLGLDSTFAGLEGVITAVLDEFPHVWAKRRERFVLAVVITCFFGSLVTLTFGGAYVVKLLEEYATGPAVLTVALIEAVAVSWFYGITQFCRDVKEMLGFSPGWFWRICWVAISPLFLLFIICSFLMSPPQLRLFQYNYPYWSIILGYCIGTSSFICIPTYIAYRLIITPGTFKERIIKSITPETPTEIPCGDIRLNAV
pIC50: −log10 of the molar value.
Observed Property: pIC50

Sure, the documented pIC50 for "CCC[C@@H](C(=O)c1ccc(C)cc1)N1CCCC1" is < 5.40

* * *

Molecular target: dopamine transporter (Macaca mulatta, UniProt Q7JHP9)
Construct: occupy the dopamine transporter in living brain; from tissue; host or cells: living brain of rhesus monkeys (in vivo PET)
Sequence (Q7JHP9 1-620): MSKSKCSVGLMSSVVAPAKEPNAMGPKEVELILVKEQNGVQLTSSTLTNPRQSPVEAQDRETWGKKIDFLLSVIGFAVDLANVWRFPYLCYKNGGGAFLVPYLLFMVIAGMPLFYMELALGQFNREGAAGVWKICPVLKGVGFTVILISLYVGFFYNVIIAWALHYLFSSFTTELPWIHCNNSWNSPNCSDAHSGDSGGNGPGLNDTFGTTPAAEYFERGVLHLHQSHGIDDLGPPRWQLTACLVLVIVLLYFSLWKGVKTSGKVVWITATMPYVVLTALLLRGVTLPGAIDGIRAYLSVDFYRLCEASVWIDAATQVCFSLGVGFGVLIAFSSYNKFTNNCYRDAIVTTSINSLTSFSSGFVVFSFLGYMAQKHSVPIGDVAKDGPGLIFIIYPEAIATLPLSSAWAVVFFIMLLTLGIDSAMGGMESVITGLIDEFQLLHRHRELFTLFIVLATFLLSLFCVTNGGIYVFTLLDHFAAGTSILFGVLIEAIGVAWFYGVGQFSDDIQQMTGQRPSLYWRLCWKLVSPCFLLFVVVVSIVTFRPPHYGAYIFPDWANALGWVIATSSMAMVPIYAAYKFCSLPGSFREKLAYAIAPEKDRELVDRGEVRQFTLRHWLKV
Test: Dopamine transporter occupancy by PET imaging with [11C]CFT
Format: in vivo, Rhesus monkeys
Conditions: rhesus monkey, i.v., one hour; from reduced [11C]CFT binding potential vs baseline
Observed Property: % Occupancy (%)
Write the value in % as a bare number.

Sure, the documented % Occupancy for CCCC(C(=O)c1ccc(C)cc1)N1CCCC1 (racemic) is 74

Sure, the documented % Occupancy for CCCC(C(=O)c1ccc(Br)cc1)N1CCCC1 (centres unmarked) is 33

Sure, the documented % Occupancy for CCCC(C(=O)c1ccccc1)N1CCCC1 (centres unmarked) is 64

Sure, the documented % Occupancy for "CCC[C@@H](C(=O)c1ccc(C)cc1)N1CCCC1" is 70

Sure, the documented % Occupancy for CCCC(C(=O)c1ccc(Cl)c(Cl)c1)N1CCCC1 (centres unmarked) is 56

* * *

Molecular target: dopamine transporter (Macaca mulatta, UniProt Q7JHP9)
Construct: occupy the dopamine transporter in living brain; from tissue; host or cells: living brain of rhesus monkeys (in vivo PET)
Assay: Dopamine transporter occupancy by PET imaging with [11C]CFT
Format: in vivo, Rhesus monkeys
Settings: rhesus monkey, compound intravenously, PET one hour after administration
For each of the molecules below, state its [11C]CFT with Compound (binding potential).

Sure, the documented [11C]CFT with Compound (binding potential) for CCCC(C(=O)c1ccc(Cl)c(Cl)c1)N1CCCC1 (centres unmarked) is 0.5898

Sure, the documented [11C]CFT with Compound (binding potential) for CCCC(C(=O)c1ccc(C)cc1)N1CCCC1 (racemic) is 0.4551

Sure, the documented [11C]CFT with Compound (binding potential) for CCCC(C(=O)c1ccc(Br)cc1)N1CCCC1 (centres unmarked) is 1.6025

Sure, the documented [11C]CFT with Compound (binding potential) for "CCC[C@@H](C(=O)c1ccc(C)cc1)N1CCCC1" is 0.6112

Sure, the documented [11C]CFT with Compound (binding potential) for CCCC(C(=O)c1ccccc1)N1CCCC1 (centres unmarked) is 0.7885

* * *

Biological target: dopamine transporter (DAT) (Homo sapiens, UniProt Q01959)
Sequence (Q01959 whole entry, species assumed): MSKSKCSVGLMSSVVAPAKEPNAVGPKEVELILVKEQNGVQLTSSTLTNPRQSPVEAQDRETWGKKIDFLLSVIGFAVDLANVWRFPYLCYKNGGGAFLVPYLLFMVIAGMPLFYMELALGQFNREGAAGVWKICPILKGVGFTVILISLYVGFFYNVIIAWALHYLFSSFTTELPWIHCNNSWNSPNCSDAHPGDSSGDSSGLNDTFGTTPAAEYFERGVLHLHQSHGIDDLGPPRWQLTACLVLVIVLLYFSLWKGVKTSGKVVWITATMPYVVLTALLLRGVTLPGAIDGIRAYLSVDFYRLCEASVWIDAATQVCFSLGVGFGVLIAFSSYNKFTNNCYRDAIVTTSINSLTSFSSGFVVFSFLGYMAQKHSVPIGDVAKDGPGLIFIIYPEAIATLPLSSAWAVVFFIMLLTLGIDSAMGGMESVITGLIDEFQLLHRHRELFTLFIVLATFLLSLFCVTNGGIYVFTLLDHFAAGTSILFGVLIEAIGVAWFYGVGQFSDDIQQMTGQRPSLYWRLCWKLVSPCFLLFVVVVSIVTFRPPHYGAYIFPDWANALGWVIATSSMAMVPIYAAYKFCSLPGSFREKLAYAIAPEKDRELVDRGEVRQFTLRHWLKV
Assay: Radioreceptor assay, inhibition of (3H)WIN 35,428 binding to the dopamine transporter
Conditions: affinity column of the PET occupancy table; read-out: DAT Affinity
Observed Property: IC50 (nM)
Write the value in nM as a bare number.

Result for CCCC(C(=O)c1ccccc1)N1CCCC1 (stereo not shown) , tested on dopamine transporter (DAT) (Homo sapiens, UniProt Q01959), IC50: 13

* * *

For each of the compounds below, state its melting point.
Counter-ions that a name gives are not always drawn.

Sure, the documented melting point for C#CCC(C(=O)c1ccc(C)cc1)N1CCCC1 (stereo not shown) (as salt: salt) is 178 °C (dec.)

Sure, the documented melting point for CCC(CC(=O)c1ccc(C)cc1)N1CCCC1 (stereo not shown) (as salt: salt) is 97 °C (dec.)

Sure, the documented melting point for CCCC(C(=O)c1ccc(Br)cc1)N1CCCC1 (stereo not shown) (as salt: salt) is 200 °C (dec.)

Sure, the documented melting point for CCCC(C(=O)c1ccc(Cl)c(Cl)c1)N1CCCCC1 (stereo not shown) (as salt: salt) is 202 °C (dec.)

Sure, the documented melting point for CCCC(C(=O)c1ccc(-c2cccs2)cc1)N1CCCC1 (stereo not shown) (as salt: salt) is 220 °C (dec.)

Sure, the documented melting point for CCCC(C(=O)c1cccc(I)c1)N1CCCC1 (stereo not shown) (as salt: salt) is 203 °C (dec.)

Sure, the documented melting point for CCCC(C(=O)c1cccc(C)c1)N1CCCC1 (stereo not shown) (as salt: salt) is 166 °C (dec.)
